List of KD relative to parental chimera values.
- target_or_test_system: T1, Human VSIG4-L-His (human, UniProt Q9Y279 20-283)
- T1 construct: long isoform ECD with His tag; also called hVSIG4-L
- T1 sequence: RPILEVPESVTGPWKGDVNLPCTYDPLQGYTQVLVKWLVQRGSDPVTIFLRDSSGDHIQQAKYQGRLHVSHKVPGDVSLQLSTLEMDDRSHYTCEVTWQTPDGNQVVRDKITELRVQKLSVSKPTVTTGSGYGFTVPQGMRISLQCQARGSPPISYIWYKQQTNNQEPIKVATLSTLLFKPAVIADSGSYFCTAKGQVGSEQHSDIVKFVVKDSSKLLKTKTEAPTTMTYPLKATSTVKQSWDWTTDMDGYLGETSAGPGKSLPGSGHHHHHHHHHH
- run_description: BLI, IgG on AHC sensor, antigen 100 nM
# number only, unit fold dropped from output

Worked examples follow.
{"columns": ["binder", "KD relative to parental chimera (fold)"],
 "data": [
  ["h12A12.D humanized IgG4 (S228P) kappa (antibody, V domains shown) VH: QVQMVQSGSELKKPGASVKVSCKASGYTFTNYWMHWVRQAPGQGLEWMGYINPSTGYTDYNQGFTGRFVFSADKSVSTAYLQISSLKAEDTAVYYCIRGSDYYGRDYWGQGTTVTVSS VL: EIVMTQSPATLSLSPGERATLSCRASQDISNYLNWYQQKPGQALRLLIYYTSRRHTGIPARFSGSGSGTDYTLTISSLEPEDFAVYYCRQGNTLPWTFGGGTKLEIKR", 1.1],
  ["12A12 mouse/human chimeric IgG4 (S228P) kappa (antibody, V domains shown) VH: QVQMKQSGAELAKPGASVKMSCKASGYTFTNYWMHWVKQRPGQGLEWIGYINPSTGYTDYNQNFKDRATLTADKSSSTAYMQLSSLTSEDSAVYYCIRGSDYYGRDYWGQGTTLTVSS VL: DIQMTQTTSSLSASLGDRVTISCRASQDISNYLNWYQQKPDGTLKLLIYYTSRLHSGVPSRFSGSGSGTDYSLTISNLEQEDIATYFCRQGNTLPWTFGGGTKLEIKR", 1]
]}

Please examine the following record next.
[Q] Endpoint output: KD relative to parental chimera of h12A12.C humanized IgG4 (S228P) kappa (antibody, V domains shown) VH: QVQMVQSGSELKKPGASVKVSCKASGYTFTNYWMHWVRQAPGQGLEWIGYINPSTGYTDYNQGFTGRFVLSADKSSSTAYLQISSLKAEDTAVYYCIRGSDYYGRDYWGQGTTVTVSS VL: DIQMTQSPSSLSASVGDRVTITCQASQDISNYLNWYQQKPGKALKLLIYYTSRLHTGVPSRFSGSGSGTDYTFTISSLQPEDIATYYCRQGNTLPWTFGGGTKLEIKR . Value?
[A] 0.5
